# subject_of_test: ERα protein (HiBiT-tagged) in ESR1_HiBiT KI MCF7 cells (Homo sapiens)
# measurement_notes: Nano Glo HiBiT Lytic Degradation Assay
# Assay type: cell-based
# experimental_setup: 6 hours with compound, 14-point dose response 1:3, bell-shape curve fit, half-maximal effect of first Hill model, read-out: MCF7 ESR1 HiBiT - (DC50)
Exam item: assign true (1) to entries whose DC50 is below 20 nM and false (0) to entries at or above 20 nM. Note that a value of exactly 20 nM receives false (0).

• C[C@]1(C2CCCCC2)OCc2cc(O)ccc2[C@@H]1c1ccc(N2CCC(CN3CCN(c4ccc5c(c4)CN([C@H]4CCC(=O)NC4=O)C5=O)CC3)CC2)cc1 = false (0)
• O=C1CCC(c2ccc(C3CC4(C3)CN(CC3CCN(c5ccc([C@@H]6c7ccc(O)cc7CC[C@@H]6c6ccccc6)cc5)CC3)C4)cc2)C(=O)N1 (stereo partly shown) = true (1)
• O=C1CCC(N2Cc3cc(N4CCN(CC5CCN(c6ccc([C@@H]7c8ccc(O)cc8CC[C@@H]7C7CCC(F)(F)CC7)cc6)CC5)CC4)ccc3C2=O)C(=O)N1 (single isomer, unassigned) = false (0)
• COc1cccc([C@@H]2OCc3cc(O)ccc3[C@@H]2c2ccc(N3CCC(CN4CCN(c5ccc6c(c5)CN([C@H]5CCC(=O)NC5=O)C6=O)CC4)CC3)cc2)c1 = true (1)
• O=C1CC[C@H](N2Cc3cc(N4CCN(CC5CCN(c6ccc([C@H]7c8ccc(O)cc8CC[C@H]7c7ccccc7)cn6)CC5)CC4)ccc3C2=O)C(=O)N1 = false (0)
• O=C1CC[C@H](N2Cc3cc(N4CCN(CC5CCN(c6ccc([C@@H]7c8ccc(O)cc8CC[C@@H]7C7CCOCC7)cc6)CC5)CC4)ccc3C2=O)C(=O)N1 = true (1)
• C[C@@H]1CN(c2ccc3c(c2)CN([C@H]2CCC(=O)NC2=O)C3=O)CCN1CC1CCN(c2ccc([C@H]3c4ccc(O)cc4CC[C@H]3c3ccccc3)cc2)CC1 (single isomer, unassigned) = false (0)
• O=C1CC[C@H](N2Cc3cc(N4CCN(CC5CCN(c6ccc([C@H]7c8ccc(O)cc8C(F)(F)C[C@H]7c7ccccc7)c(F)c6)CC5)CC4)ccc3C2=O)C(=O)N1 = true (1)
• CC(C)C[C@H]1OCc2cc(O)ccc2[C@@H]1c1ccc(N2CCC(CN3CCN(c4ccc5c(c4)CN([C@H]4CCC(=O)NC4=O)C5=O)CC3)CC2)cc1 (single isomer, unassigned) = true (1)
• O=C1CC[C@H](N2Cc3cc(N4CCN(CC5CCN(c6ccc([C@@H]7c8ccc(O)cc8CO[C@@H]7C7CC7)cc6)CC5)CC4)ccc3C2=O)C(=O)N1 (single isomer, unassigned) = false (0)

====

# subject_of_test: ERα protein (HiBiT-tagged) in ESR1_HiBiT KI MCF7 cells (Homo sapiens, UniProt P03372)
# measurement_notes: Nano Glo HiBiT Lytic Degradation Assay
# Assay type: cell-based
# experimental_setup: 6 hours with compound, 14-point dose response 1:3, bell-shape curve fit, half-maximal effect of first Hill model, read-out: MCF7 ESR1 HiBiT - (DC50)
Response field label: string, one of met (DC50 strictly below 20 nM) or not met.

• O=C1CCC(N2Cc3cc([C@H]4CCN(CC5CCN(c6ccc([C@@H]7c8ccc(O)cc8CC[C@@H]7c7ccccc7)cc6)CC5)C[C@@H]4F)ccc3C2=O)C(=O)N1 (single isomer, unassigned) = not met
• O=C1CCC(c2ccc(N3CC[C@]4(CCN(CC5CCN(c6ccc([C@@H]7c8ccc(O)cc8CC[C@@H]7c7ccccc7)cc6)CC5)C4)C3)cc2)C(=O)N1 (single isomer, unassigned) = met
• O=C1CC[C@H](N2Cc3cc(N4CCN(C[C@@H]5CCN(c6ccc([C@H]7c8ccc(O)cc8CC[C@H]7c7ccccc7)cc6)C5)CC4)ccc3C2=O)C(=O)N1 (single isomer, unassigned) = met
• Cn1nc(N2CCC(=O)NC2=O)c2ccc(N3CCN(CC4CCN(c5ccc([C@@H]6c7ccc(O)cc7CC[C@@H]6c6ccccc6)cc5)CC4)CC3)cc21 = met
• O=C1CC[C@H](c2ccc(N3CCC4(CCN(CC5CCN(c6ccc([C@@H]7c8ccc(O)cc8CC[C@@H]7c7ccccc7)cc6)CC5)C4)CC3)cc2)C(=O)N1 (single isomer, unassigned) = met

====

# subject_of_test: ERα protein (HiBiT-tagged) in ESR1_HiBiT KI MCF7 cells (Homo sapiens, UniProt P03372)
# measurement_notes: Nano Glo HiBiT Lytic Degradation Assay
# Format: cell-based
# experimental_setup: 6 hours with compound, 14-point dose response 1:3, bell-shape curve fit, half-maximal effect of first Hill model, read-out: MCF7 ESR1 HiBiT - (DC50)
# Description: Selected compounds of the present disclosure were tested in a Nano Glo HiBiT Lytic Degradation Assay to measure the level of ERα protein degradation in MCF7 cells. Cell culture: ESR1_HiBiT KI MCF7 cells were maintained in growth media without antibiotics. […] Cell seeding: Cells were counted using a Vi-Cell and seeded in a 384-well flat-bottom microplate (cell culture-treated) at 4000 cells/well in 25 μL of growth medium using a BioTek MultiFlo Multimode Dispenser. […]
Mark Y for DC50 under 0.6 nM, N if at or over.

* O=C1CC[C@H](N2Cc3cc(N4CCN(CC5CCN(c6ccc([C@H]7c8ccc(O)cc8CC[C@H]7C78CC9CC(CC(C9)C7)C8)cc6)CC5)CC4)ccc3C2=O)C(=O)N1 | N
* Cc1cc(F)c([C@@H]2OCc3cc(O)ccc3[C@@H]2c2ccc(N3CCC(CN4CCN(c5ccc6c(c5)CN([C@H]5CCC(=O)NC5=O)C6=O)CC4)CC3)cc2)cc1F | N
* O=C1CC[C@H](N2Cc3cc(N4CCN(CC5CCN(c6ccc([C@@H]7c8ccc(O)cc8CO[C@@H]7c7ccc8c(c7)CC8)cc6)CC5)CC4)ccc3C2=O)C(=O)N1 (single isomer, unassigned) | Y
* C[C@]1(C2CCCCC2)CCc2cc(O)ccc2[C@H]1c1ccc(N2CCC(CN3CCN(c4ccc5c(c4)CN([C@H]4CCC(=O)NC4=O)C5=O)CC3)CC2)cc1 | N
* Cn1nccc1[C@H]1CCc2cc(O)ccc2[C@H]1c1ccc(N2CCC(CN3CCN(c4ccc5c(c4)CN([C@H]4CCC(=O)NC4=O)C5=O)CC3)CC2)cc1 (single isomer, unassigned) | N
* O=C1CC[C@H](N2Cc3cc(N4CCN(CC5CCN(c6ccc([C@@H]7c8ccc(O)c(Cl)c8CC[C@@H]7c7ccccc7)cc6Cl)CC5)CC4)ccc3C2=O)C(=O)N1 | N
* O=C1CC[C@H](N2Cc3cc(N4CCN(CC5CCN(c6ccc([C@H]7c8ccc(O)cc8CO[C@H]7C7CCCCC7)cc6)CC5)CC4)ccc3C2=O)C(=O)N1 | N
* Cc1ccccc1[C@H]1CC(F)(F)c2cc(O)ccc2[C@H]1c1ccc(N2CCC(CN3CCN(c4ccc5c(c4)CN([C@H]4CCC(=O)NC4=O)C5=O)CC3)CC2)cc1 | Y
* O=C1CC[C@H](N2Cc3cc(N4CCN(CC5CCN(c6ccc([C@H]7c8ccc(O)cc8CO[C@H]7c7ccc8c(c7)CCC8)cc6)CC5)CC4)ccc3C2=O)C(=O)N1 | N
* Cc1cc(N2CCC3(CCN(CC4CCN(c5ccc([C@@H]6c7ccc(O)cc7CC[C@@H]6c6ccccc6)cc5)CC4)C3)CC2)ccc1N1CCC(=O)NC1=O | Y

====

# subject_of_test: ERα protein (HiBiT-tagged) in ESR1_HiBiT KI MCF7 cells (Homo sapiens, UniProt P03372)
# Sequence (P03372 1-595): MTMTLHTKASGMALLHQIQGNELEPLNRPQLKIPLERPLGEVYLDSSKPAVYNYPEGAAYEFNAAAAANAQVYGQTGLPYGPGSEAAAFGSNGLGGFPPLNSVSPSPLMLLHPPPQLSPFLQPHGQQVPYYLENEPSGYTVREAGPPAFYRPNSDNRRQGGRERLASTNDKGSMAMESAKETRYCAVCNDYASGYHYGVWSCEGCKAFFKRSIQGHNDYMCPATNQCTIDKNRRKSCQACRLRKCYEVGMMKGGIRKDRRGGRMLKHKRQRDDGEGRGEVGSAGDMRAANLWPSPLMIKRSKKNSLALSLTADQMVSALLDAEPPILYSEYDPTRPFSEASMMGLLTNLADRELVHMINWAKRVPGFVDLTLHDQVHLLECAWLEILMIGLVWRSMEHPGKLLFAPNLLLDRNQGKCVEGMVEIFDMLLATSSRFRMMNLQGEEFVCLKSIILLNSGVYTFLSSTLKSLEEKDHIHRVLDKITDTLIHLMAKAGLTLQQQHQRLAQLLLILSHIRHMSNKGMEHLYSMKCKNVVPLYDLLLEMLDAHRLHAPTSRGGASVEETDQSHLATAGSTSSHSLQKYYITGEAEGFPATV
# measurement_notes: Nano Glo HiBiT Lytic Degradation Assay
# Type: cell-based
# experimental_setup: 6 hours with compound, 14-point dose response 1:3, bell-shape curve fit, half-maximal effect of first Hill model, read-out: MCF7 ESR1 HiBiT - (DC50)
This listing pairs compounds with measured log10 of DC50.
metric: log10 of DC50 (log10 of the value in nM)

- C[C@H]1C[C@H](c2ccccc2)[C@H](c2ccc(N3CCC(CN4CCN(c5ccc6c(c5)CN([C@H]5CCC(=O)NC5=O)C6=O)CC4)CC3)cc2)c2ccc(O)cc21 (single isomer, unassigned): 0.30
- O=C1CC[C@H](N2Cc3cc(N4CCN(CC5CCN(c6ccc([C@@H]7c8ccc(O)cc8CC[C@@]78CCCc7ccccc78)cc6)CC5)CC4)ccc3C2=O)C(=O)N1: -0.37
- Cc1cc(N2CCC(CN3CCN(c4ccc5c(c4)CN([C@H]4CCC(=O)NC4=O)C5=O)CC3)CC2)ccc1[C@@H]1c2ccc(O)cc2CC[C@@H]1C1CCCCC1: 0.30
- O=C1CC[C@@H](c2ccc(N3CCC4(CCN(CC5CCN(c6ccc([C@@H]7c8ccc(O)cc8CO[C@@H]7c7ccccc7)cc6)CC5)C4)CC3)cc2)C(=O)N1 (single isomer, unassigned): 1.34
- O=C1CCC(N2Cc3cc(N4CCN(CC5CCN(c6ccc([C@H]7c8ccc(O)cc8CC[C@H]7c7cccnc7)cc6)CC5)CC4)ccc3C2=O)C(=O)N1 (single isomer, unassigned): 1.24
- O=C1CC[C@H](N2Cc3cc(N4CCN(CC5CCN(c6ccc([C@@H]7c8ccc(O)cc8COC78CCCCC8)cc6)CC5)CC4)ccc3C2=O)C(=O)N1: -0.51
- O=C1CC[C@H](N2Cc3cc(N4CCN(CC5CCN(c6ccc([C@H]7c8ccc(O)cc8CO[C@H]7c7ccc(C(F)(F)F)cc7)cc6)CC5)CC4)ccc3C2=O)C(=O)N1 [Compound I-350]: 1.30
